The molecules listed here are annotated with their IC50.
Target: PI3K alpha (Homo sapiens (Human))
Sequence (P42336 other isoform, or with tags, fused parts or gaps): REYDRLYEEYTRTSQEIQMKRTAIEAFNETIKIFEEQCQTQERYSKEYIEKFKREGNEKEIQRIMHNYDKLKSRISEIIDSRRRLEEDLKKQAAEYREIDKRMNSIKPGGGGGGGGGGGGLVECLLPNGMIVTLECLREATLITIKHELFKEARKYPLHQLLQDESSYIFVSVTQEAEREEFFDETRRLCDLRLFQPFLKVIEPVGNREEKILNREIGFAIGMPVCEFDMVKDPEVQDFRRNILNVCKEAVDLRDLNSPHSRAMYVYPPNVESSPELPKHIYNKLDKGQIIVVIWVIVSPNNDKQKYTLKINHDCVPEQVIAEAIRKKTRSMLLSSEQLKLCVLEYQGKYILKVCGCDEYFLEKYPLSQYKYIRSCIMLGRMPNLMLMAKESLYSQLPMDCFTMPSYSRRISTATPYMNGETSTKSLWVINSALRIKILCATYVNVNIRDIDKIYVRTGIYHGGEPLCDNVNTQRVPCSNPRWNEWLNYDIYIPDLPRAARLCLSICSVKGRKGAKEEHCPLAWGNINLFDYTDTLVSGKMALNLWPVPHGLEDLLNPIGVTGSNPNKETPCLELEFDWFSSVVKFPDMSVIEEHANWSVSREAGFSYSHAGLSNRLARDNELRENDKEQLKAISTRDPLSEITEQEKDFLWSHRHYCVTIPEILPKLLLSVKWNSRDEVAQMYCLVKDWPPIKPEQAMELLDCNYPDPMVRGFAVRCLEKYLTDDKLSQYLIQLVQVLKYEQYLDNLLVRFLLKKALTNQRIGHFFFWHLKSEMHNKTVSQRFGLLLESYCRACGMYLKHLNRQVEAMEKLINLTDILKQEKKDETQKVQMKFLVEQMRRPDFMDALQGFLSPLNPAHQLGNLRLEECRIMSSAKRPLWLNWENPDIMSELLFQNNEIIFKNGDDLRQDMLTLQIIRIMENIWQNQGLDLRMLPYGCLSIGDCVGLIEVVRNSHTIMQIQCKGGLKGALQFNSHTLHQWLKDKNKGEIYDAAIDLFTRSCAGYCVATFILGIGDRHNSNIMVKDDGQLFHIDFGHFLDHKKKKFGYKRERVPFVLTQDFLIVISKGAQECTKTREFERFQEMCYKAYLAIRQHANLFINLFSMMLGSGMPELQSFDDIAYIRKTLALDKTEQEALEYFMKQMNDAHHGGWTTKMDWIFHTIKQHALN
Assay: Enzymatic PI3K alpha isoform inhibition (lipid kinase, Kinase-Glo luminescence)
Type: biochemical
Details: enzymatic assay
assay readout: IC50 (nM)

COc1cc(N2CCc3ncnc(O[C@H]4CCN(C(=O)C5CCC(F)(F)CC5)C4)c3C2)cnc1OC [Example 26]    368
COc1ncc(N2CCc3ncnc(O[C@H]4CCN(C(=O)c5cocn5)C4)c3C2)cc1C(F)(F)F [Example 91]    924
CCC(=O)N1CC[C@H](Nc2ncnc3c2CN(c2cnc(OC)c(C)c2)CC3)C1 [Example 81]    651
COc1ncc(N2CCc3ncnc(O[C@H]4CCN(C(=O)c5c[nH]cn5)C4)c3C2)cc1C(F)(F)F [Example 45]    860
COc1ncc(N2CCc3ncnc(O[C@H]4CCN(C(=O)c5cccnc5)C4)c3C2)cc1C(F)(F)F [Example 44]    1190
COc1ncc(N2CCc3ncnc(N[C@H]4CCN(C(=O)C5CCOCC5)C4)c3C2)cc1C#N [Example 69]    56
CCC(=O)N1CC[C@H](Oc2ncnc3c2CN(c2cnc(OC)c(OC)c2)CC3)C1 [Example 4]    1760
COc1ncc(N2CCc3ncnc(O[C@H]4CCN(C(=O)c5cnco5)C4)c3C2)cc1C [Example 12]    952
COc1ncc(N2CCc3ncnc(O[C@H]4CCN(C(=O)C5CCOCC5)C4)c3C2)cc1C#N [Example 3]    2390
COc1ncc(N2CCc3ncnc(O[C@H]4CCN(C(=O)C5CCOC(C)(C)C5)C4)c3C2)cc1C#N (stereo partly shown) [Example 29]    2580
Nc1ncc(N2CCc3ncnc(O[C@H]4CCN(C(=O)C5CCOCC5)C4)c3C2)cc1C(F)(F)F [Example 57]    590
COc1cc(N2CCc3ncnc(O[C@H]4CCN(C(=O)c5coc(C)n5)C4)c3C2)cnc1OC [Example 23]    129
COc1ncc(N2CCc3ncnc(O[C@H]4CCN(C(=O)c5ccnn5C)C4)c3C2)cc1C(F)(F)F [Example 42]    863
COc1ncc(N2CCc3ncnc(O[C@H]4CCN(C(=O)N5CCOCC5)C4)c3C2)cc1C(F)(F)F [Example 86]    1330
CCC(=O)N1CC[C@H](Nc2ncnc3c2CN(c2cnc(OC)c(C(F)(F)F)c2)CC3)C1 [Example 67]    262
COc1ncc(N2CCc3ncnc(O[C@H]4CCN(C(=O)c5ccoc5)C4)c3C2)cc1C [Example 11]    1200
COc1ccc(N2CCc3ncnc(O[C@H]4CCN(C(=O)C5CCOCC5)C4)c3C2)cn1 [Example 95]    757
COc1ncc(N2CCc3ncnc(N[C@H]4CCN(C(=O)C5CCOCC5)C4)c3C2)cc1Cl [Example 82]    66
COc1ncc(N2CCc3ncnc(O[C@H]4CCN(C(=O)c5cscn5)C4)c3C2)cc1C#N [Example 35]    4230
COc1ncc(N2CCc3ncnc(N[C@H]4CCN(C(=O)C5CCOC(C)(C)C5)C4)c3C2)cc1C (stereo partly shown) [Example 80]    430
COc1ncc(N2CCc3ncnc(N[C@H]4CCN(C(=O)C5CCN(C(C)=O)CC5)C4)c3C2)cc1C(F)(F)F [Example 70]    121
COc1ncc(N2CCc3ncnc(O[C@H]4CCN(C(=O)N5CCC(O)CC5)C4)c3C2)cc1C(F)(F)F [Example 87]    452
COc1ncc(N2CCc3ncnc(O[C@H]4CCN(C(=O)c5cncs5)C4)c3C2)cc1C(F)(F)F [Example 41]    515
N#Cc1cc(N2CCc3ncnc(O[C@H]4CCN(C(=O)C5CCOCC5)C4)c3C2)cnc1N [Example 6]    987
COc1ncc(N2CCc3ncnc(O[C@H]4CCN(C(=O)c5cnco5)C4)c3C2)cc1C(F)(F)F [Example 94]    1710
COc1ncc(N2CCc3ncnc(O[C@H]4CCN(C(=O)N5CCN(C(C)=O)CC5)C4)c3C2)cc1C(F)(F)F [Example 89]    1190
COc1cc(N2CCc3ncnc(O[C@H]4CCN(C(=O)c5cnco5)C4)c3C2)cnc1OC [Example 22]    580
COc1ncc(N2CCc3ncnc(O[C@H]4CCN(C(=O)c5nnc(C)o5)C4)c3C2)cc1C(F)(F)F [Example 51]    912
COc1ncc(N2CCc3ncnc(N[C@H]4CCN(C(=O)[C@H]5CC[C@@H](O)CC5)C4)c3C2)cc1C(F)(F)F (single isomer, unassigned) [Example 75]    118
CCC(=O)N1CC[C@H](Oc2ncnc3c2CN(c2cnc(OC)c(C#N)c2)CC3)C1 [Example 64]    2330
COc1ncc(N2CCc3ncnc(O[C@H]4CCN(C(=O)c5cnn(C)c5)C4)c3C2)cc1C(F)(F)F [Example 54]    384
